- System: SF-295 CNS
- Assay protocol: NCI-60 one-dose screen, 48 h
- Run conditions: 10 µM
About 83,000 compounds went through this panel and 20% of them were active in at least one assay; those are over-represented in the sample as a whole. Calls of active or inactive are those of the source. Rule for the calls: active = growth percent below 10; inactive = the rest.
Outcome codes: active, inactive

{"Compound structure string": "N#Cc1c(NC(=O)c2cccc(C(F)(F)F)c2)sc2c1CCC(O)=C2", "Label class": "inactive"}
{"Compound structure string": "CC(=C(c1ccc(OCCN2CCCCC2)cc1)c1ccc(OCCN2CCCCC2)cc1)c1ccccc1", "Label class": "active"}
{"Compound structure string": "Cc1cc2c(c(O)c1Br)-c1ncoc1C(=O)[C@]1(C)CC[C@H](C(C)C)[C@H]21", "Label class": "inactive"}
{"Compound structure string": "CN(C)c1ccc(/C=C/c2nc3ccccc3c(=O)n2CC(=O)Nc2ccc(Cl)cc2)cc1", "Label class": "inactive"}
{"Compound structure string": "Cc1ccc(C(C)C)cc1NC(=O)c1ccccc1O", "Label class": "inactive"}
{"Compound structure string": "COc1ccc(C(=O)Nc2ccc(-c3ccc4c(c3)NC(=O)/C4=C\\c3ccc[nH]3)cc2)cc1", "Label class": "active"}
{"Compound structure string": "CN1CCN(Cc2ccc(NC(=O)c3cncc(C#Cc4cnc5ccc(N[C@@H]6CCOC6)nn45)c3)cc2C(F)(F)F)CC1", "Label class": "active"}
{"Compound structure string": "Cc1ccc(-c2cc(-c3cc4ccccc4nc3Cl)[nH]c(=O)n2)cc1", "Label class": "inactive"}
{"Compound structure string": "O=c1[nH]c2ccccc2cc1CSc1ccc(Nc2nccc(-c3ccc4c(c3)OCO4)n2)cc1", "Label class": "inactive"}
{"Compound structure string": "O=C(Nc1cccc([N+](=O)[O-])c1)Nc1cccc([N+](=O)[O-])c1", "Label class": "inactive"}

====

- Test system: HCT-15 colon
- Assay protocol: NCI-60 one-dose screen, 48 h (100 = growth as untreated, 0 = no growth, -100 = all killed)
- Run conditions: 10 µM
This is part of a sample that, as a whole, favours compounds with a hit. Of some 83,000 tested, about 20% had one in any assay.
Test readout: growth (%)

{"Compound": "O=C(Nc1ccc(OCc2ccccc2)cc1)Nc1ccc(Cl)c(C(F)(F)F)c1", "Test readout": "growth", "Units text": "%", "Experimental value": 9.69}
{"Compound": "COc1cc2c3c(n(CCCNCCO)c(=O)c2cc1OC)-c1nc2c(cc1C3=O)OCO2", "Test readout": "growth", "Units text": "%", "Experimental value": 48.5}
{"Compound": "N#Cc1c(NC(=O)c2ccc(C(F)(F)F)cc2)sc2c1CCC(O)=C2", "Test readout": "growth", "Units text": "%", "Experimental value": 9.23}
{"Compound": "Cc1cc2c(c(O)c1Br)-c1ncoc1C(=O)[C@]1(C)CC[C@H](C(C)C)[C@H]21", "Test readout": "growth", "Units text": "%", "Experimental value": 7.31}
{"Compound": "COc1cc2c(c(OC)c1OC)C(=O)CC(c1cccc(NC(=O)c3cccc(N)c3)c1)O2 (configuration not stated)", "Test readout": "growth", "Units text": "%", "Experimental value": 64.9}
{"Compound": "O=C(Nc1ccc(Cl)c([N+](=O)[O-])c1)Nc1ccc(Cl)c([N+](=O)[O-])c1", "Test readout": "growth", "Units text": "%", "Experimental value": 7.01}
{"Compound": "CC1CC(c2ccc(N(C)C)cc2)=NN1c1nc(O)c(C2=c3cc(Br)ccc3=NC2=O)s1 (configuration not stated)", "Test readout": "growth", "Units text": "%", "Experimental value": 50.5}
{"Compound": "C/C(=N\\N=C\\c1ccc(Cl)c([N+](=O)[O-])c1)c1ccc2c(c1)Nc1ccccc1S2", "Test readout": "growth", "Units text": "%", "Experimental value": 50.8}
{"Compound": "O=C1Nc2ccc(Cl)cc2/C1=C/c1cccc(OCc2ccccc2)c1", "Test readout": "growth", "Units text": "%", "Experimental value": 22.3}
{"Compound": "C#CCNC(=O)CCC(=O)OC[C@]12CC[C@@H](C(=C)C)[C@@H]1C1CC[C@@H]3[C@@]4(C)CCCNC(C)(C)[C@@H]4CC[C@@]3(C)[C@]1(C)CC2 (some centres not stated)", "Test readout": "growth", "Units text": "%", "Experimental value": -64.9}
{"Compound": "CC(=O)Nc1ccc(-c2cn(-c3cccc(C(=O)Nc4cc(C(F)(F)F)cc(C(F)(F)F)c4)c3)nn2)cn1", "Test readout": "growth", "Units text": "%", "Experimental value": -40.5}
{"Compound": "C=CC(=O)Nc1nc(-c2cccc(NS(=O)(=O)c3cccc4c(N(C)C)cccc34)c2)cs1", "Test readout": "growth", "Units text": "%", "Experimental value": -76.8}
{"Compound": "COc1cccc2nc(Nc3cccc(NC(=O)c4ccc(CN5CCCN(C)CC5)c(C(F)(F)F)c4)c3)ccc12", "Test readout": "growth", "Units text": "%", "Experimental value": -100}
{"Compound": "Cc1nc2c(cnn2-c2ccccc2)c(=O)n1-c1ccc(NC(=O)c2ccc(F)cc2)cc1", "Test readout": "growth", "Units text": "%", "Experimental value": 66.1}
{"Compound": "O=C(N/N=C/c1ccc(-c2cccc([N+](=O)[O-])c2)o1)c1[nH]c2ccc(Br)cc2c1-c1ccccc1", "Test readout": "growth", "Units text": "%", "Experimental value": 0.278}
{"Compound": "O=C(NCCCCC(c1ccc(F)cc1)c1ccc(F)cc1)NCCCc1cccnc1", "Test readout": "growth", "Units text": "%", "Experimental value": 14}
{"Compound": "N#Cc1c(-c2ccc(Cl)cc2)cc(-c2ccccc2)nc1OCc1ccccc1", "Test readout": "growth", "Units text": "%", "Experimental value": 36.1}
{"Compound": "COc1ccc2nc(Cl)c(-c3cc(-c4ccccc4)nc(=O)[nH]3)cc2c1", "Test readout": "growth", "Units text": "%", "Experimental value": 0.676}
{"Compound": "CCCn1c(O)c(N=Nc2nc(-c3cc4ccccc4oc3=O)cs2)c2cc(Br)ccc21", "Test readout": "growth", "Units text": "%", "Experimental value": 90.4}
{"Compound": "OCCNc1oc(-c2ccccc2)nc1[P+](c1ccccc1)(c1ccccc1)c1ccccc1", "Test readout": "growth", "Units text": "%", "Experimental value": 77.8}
{"Compound": "O=c1[nH]c2ccccc2cc1CSc1ccc(Nc2nccc(-c3ccc(C(F)(F)F)cc3)n2)cc1", "Test readout": "growth", "Units text": "%", "Experimental value": 29.7}
{"Compound": "O=c1[nH]n(C(=S)N/N=C/c2ccc(F)cc2)c(=O)c2ccccc12", "Test readout": "growth", "Units text": "%", "Experimental value": 22.9}
{"Compound": "Cn1cc(/C=N/Nc2ccnc3cc(Cl)ccc23)c2ccccc21", "Test readout": "growth", "Units text": "%", "Experimental value": -92.2}
{"Compound": "O=C(CSc1nnc(-c2ccc3nc(-c4ccc(Cl)cc4)[nH]c3c2)o1)Nc1ccc(Br)cc1", "Test readout": "growth", "Units text": "%", "Experimental value": -64.2}
{"Compound": "C=C1CCC2C3(C)COC(c4c(F)cccc4F)OC3CCC2(C)C1C/C=C1/C(=O)OCC1O (configuration not stated)", "Test readout": "growth", "Units text": "%", "Experimental value": -18.7}
{"Compound": "O=C(CSc1ccc(-c2ccc(Cl)cc2)nn1)Nc1ccc(Cl)c(C(F)(F)F)c1", "Test readout": "growth", "Units text": "%", "Experimental value": 25.9}
{"Compound": "CN(C)CCNC(=O)OCCCCOc1cc(O)c2c(=O)cc(-c3ccccc3)oc2c1", "Test readout": "growth", "Units text": "%", "Experimental value": -51.8}
{"Compound": "COc1ccc(NC(=O)CSc2nnc(-c3ccc4nc(-c5ccc(Cl)cc5)[nH]c4c3)o2)cc1", "Test readout": "growth", "Units text": "%", "Experimental value": 29.9}
{"Compound": "O=C1Nc2ccc(Cl)cc2/C1=C/c1cccc(OCc2ccccn2)c1", "Test readout": "growth", "Units text": "%", "Experimental value": -66.8}
{"Compound": "CC(C)NC(=O)c1cc(-c2ccc(NC(=O)Nc3ccc(N4CCN(C)CC4)c(C(F)(F)F)c3)cc2)nc2cccnc12", "Test readout": "growth", "Units text": "%", "Experimental value": -89.6}
{"Compound": "O=C1CCC(N2Cc3cc(NC(=O)COc4ccccc4)ccc3C2=O)C(=O)N1 (configuration not stated)", "Test readout": "growth", "Units text": "%", "Experimental value": 25.4}
{"Compound": "C/C(=C\\CC/C=C(\\C)CC/C=C(\\C)CC[C@@H](O)C(C)(C)O)CC/C=C(\\C)CC[C@@H](O)C(C)(C)O", "Test readout": "growth", "Units text": "%", "Experimental value": 21.1}
{"Compound": "O=c1cc(-c2ccccc2)oc2cc(OCCCCNCc3ccccc3)cc(O)c12", "Test readout": "growth", "Units text": "%", "Experimental value": -86.1}
{"Compound": "Cc1ccc(CSc2nc(Cl)c(C#N)c(-c3ccc(F)cc3)n2)cc1", "Test readout": "growth", "Units text": "%", "Experimental value": 54.4}
{"Compound": "COc1ccc(/C(C)=N/N=C2C(=O)N(C)c3ccc(Br)cc32)cc1S(N)(=O)=O", "Test readout": "growth", "Units text": "%", "Experimental value": 75.1}
{"Compound": "COc1ccc(C2NC(=S)NC(C)=C2C(=O)OC(C)C)cc1OC (configuration not stated)", "Test readout": "growth", "Units text": "%", "Experimental value": 105}
{"Compound": "O=c1[nH]c2ccc(Cl)cc2cc1CSc1ccc(Nc2nccc(-c3ccc(Cl)cc3)n2)cc1", "Test readout": "growth", "Units text": "%", "Experimental value": 16.3}
